- TARGET UNDER TEST: HLA-B*58:01
- PROTOCOL SUMMARY: IEDB peptide-MHC binding, purified MHC/competitive/fluorescence; filed as Kd, often an IC50 or EC50 that approximates it; bounds were set here for any values at or beyond the usual limits of such assays
- STUDY CONDITIONS: source organism: Salmonella enterica subsp. enterica serovar Paratyphi B str. SPB7
pKd: −log10 of the molar value.
MEASURE NAME: pKd

{"columns": ["CONSTRUCT SEQUENCE", "MEASURE NAME", "REPORTED RESULT"],
 "data": [
  ["FSDLLSMAW", "pKd", 8.62]
]}
